# Measurement protocol: Noncompetitive inhibition of Aspergillus oryzae beta-N-acetylglucosaminidase by pNP-GlcNAc substrate hydrolysis assay
Assay endpoint: pKi
In textbook form, pKi equals minus log to base ten of the concentration in mol/L.

Return reported pKi; argument: CC(=O)NC[C@H]1[C@H](O)[C@H](O)[C@@H]2[C@H](O)C[C@@H](CO)N21 (relative stereo) [POCHONICINE]
6.85

----------
# Measurement protocol: Inhibition of Spodoptera litura beta-N-acetylglucosaminidase by pNP-GlcNAc substrate hydrolysis assay
Assay endpoint: IC50 (nM)
Please reply with the bare figure in nM and do not write the unit itself.

Return reported IC50; argument: CC(=O)N[C@H]1c2nc(CC(=O)O)cn2[C@H](CO)[C@H](O)[C@@H]1O
5.85

Return reported IC50; argument: CC(=O)NC[C@H]1[C@H](O)[C@H](O)[C@@H]2[C@H](O)C[C@@H](CO)N21 (relative stereo)
5.96

----------
Give measured pKi for each item. Keep answers brief.
# Measurement protocol: Inhibition of jack bean beta-N-acetylglucosaminidase by pNP-GlcNAc substrate hydrolysis assay
# Parameters: species or system Canavalia ensiformis
In textbook form, pKi equals minus log to base ten of the concentration in mol/L.

Return reported pKi; argument: CC(=O)NC[C@H]1N[C@H](CO)[C@@H](O)[C@@H]1O
5.72

Return reported pKi; argument: CC(=O)NC[C@@H]1N[C@H](CO)[C@@H](O)[C@@H]1O
5.44
